assay: self-splicing fitness, log relative to wild type (ln ratio); higher = more splicing; Tetrahymena group I intron in knt gene, E. coli kanamycin selection, DiMSum; sequences stand for … in CUCUCU…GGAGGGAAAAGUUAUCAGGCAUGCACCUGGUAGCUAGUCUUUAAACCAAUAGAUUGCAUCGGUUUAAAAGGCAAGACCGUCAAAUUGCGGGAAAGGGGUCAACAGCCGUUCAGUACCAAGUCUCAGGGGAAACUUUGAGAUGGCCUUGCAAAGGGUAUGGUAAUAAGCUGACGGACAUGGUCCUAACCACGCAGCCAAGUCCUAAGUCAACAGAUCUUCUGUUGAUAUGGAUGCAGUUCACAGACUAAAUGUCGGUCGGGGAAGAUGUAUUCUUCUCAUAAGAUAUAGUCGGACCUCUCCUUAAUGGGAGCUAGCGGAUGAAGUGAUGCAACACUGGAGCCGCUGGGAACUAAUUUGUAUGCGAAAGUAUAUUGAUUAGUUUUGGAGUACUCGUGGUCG; details: 30 °C;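 further: selection with 25 µg/mL kanamycin versus none on LB agar overnight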
recorded.metric: self-splicing fitness (ln)
Keep the answer to the number alone.

Guide cases for self-splicing fitness (ln), answers given:
* GGACAGCAAUAUUACGCACA | -0.778
* ACAAAGCAAUAUUACGAUCG | -0.241
* UACAAGCAAUAUUACGGUGG | -1.65
* GAGAAGCAAUAUUACGGGCG | -1.52
* UAACAGCAAUAUUACGAAUA | -0.62

## Input Return reported self-splicing fitness (ln); argument: AUGCAGCAAUAUUACGUCAU
## Output -3.12

## Input Input AUAAAGCAAUAUUACGCUAU
## Output -1.28

## Input Can you check GCUAAGCAAUAUUACGGUUG next?
## Output -2.99

---

assay: self-splicing fitness, log relative to wild type (ln ratio); higher = more splicing; Tetrahymena group I intron in knt gene, E. coli kanamycin selection, DiMSum; sequences stand for … in CUCUCU…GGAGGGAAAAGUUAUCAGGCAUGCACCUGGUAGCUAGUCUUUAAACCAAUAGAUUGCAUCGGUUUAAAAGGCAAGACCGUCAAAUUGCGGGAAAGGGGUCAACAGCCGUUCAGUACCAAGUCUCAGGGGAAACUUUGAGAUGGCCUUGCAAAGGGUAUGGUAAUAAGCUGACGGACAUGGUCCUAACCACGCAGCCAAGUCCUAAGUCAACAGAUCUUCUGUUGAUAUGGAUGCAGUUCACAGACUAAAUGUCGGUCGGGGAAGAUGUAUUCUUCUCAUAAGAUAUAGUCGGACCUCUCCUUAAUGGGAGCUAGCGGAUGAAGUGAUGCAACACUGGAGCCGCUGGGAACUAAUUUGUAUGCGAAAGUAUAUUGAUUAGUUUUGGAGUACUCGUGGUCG; conditions: 37 °C
Classify by measured self-splicing fitness (ln): Y if it is equal to or exceeds -0.8, N if it is smaller.

Worked set:
• CUUAAGCAAUAUUACGUAAC = N
• AACAAGCAAUAUUACGUUCU = N

## Input Tell me whether self-splicing fitness (ln) is at least -0.8 here: AUCGAGCAAUAUUACGCCAU
## Output N

## Input // repeat for UACGAGCAAUAUUACGGUAC and report
## Output N

## Input Same thing, different sequence: UCAUAGCAAUAUUACGCGAC
## Output N

## Input Next sequence up: AUGCAGCAAUAUUACGACCU
## Output Y

## Input Next record, please: AGCGAGCAAUAUUACGGGUA
## Output N

## Input Quick one: AUGAAGCAAUAUUACGGCUA
## Output Y

## Input Also, UACGAGCAAUAUUACGGAAU please.
## Output N

## Input Next: AUGGAGCAAUAUUACGUGCC
## Output N

## Input Follow-up entry: CCUGAGCAAUAUUACGUCUG
## Output N

---

test: self-splicing fitness, log relative to wild type (ln ratio); higher = more splicing; Tetrahymena group I intron in knt gene, E. coli kanamycin selection, DiMSum; sequences stand for … in CUCUCU…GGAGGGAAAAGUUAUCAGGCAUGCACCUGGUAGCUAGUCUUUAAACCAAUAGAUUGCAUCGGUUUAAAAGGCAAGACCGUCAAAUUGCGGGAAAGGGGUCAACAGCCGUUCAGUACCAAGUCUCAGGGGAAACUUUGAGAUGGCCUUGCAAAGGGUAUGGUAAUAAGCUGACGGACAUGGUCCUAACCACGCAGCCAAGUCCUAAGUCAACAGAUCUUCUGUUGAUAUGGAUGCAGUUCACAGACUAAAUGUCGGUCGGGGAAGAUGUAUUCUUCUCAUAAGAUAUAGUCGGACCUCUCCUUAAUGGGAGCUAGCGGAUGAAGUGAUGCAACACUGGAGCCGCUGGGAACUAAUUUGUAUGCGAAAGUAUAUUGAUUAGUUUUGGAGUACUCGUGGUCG; conditions: 37 °C
Entries annotated with measured self-splicing fitness (ln)
Please state the value as a number alone, without comment.

- GAGCAGCAAUAUUACGUAAU: -0.994

## Input Look at this sequence and give its reported self-splicing fitness (ln). AUCAAGCAAUAUUACGACGA
## Output -0.128

## Input Moving on to the next sequence: UGACAGCAAUAUUACGAGCG
## Output -0.0667

## Input And CGGUAGCAAUAUUACGCUCA ?
## Output -0.399

---

Quick reference for self-splicing fitness (ln) among some sequences
test: self-splicing fitness, log relative to wild type (ln ratio); higher = more splicing; Tetrahymena group I intron in knt gene, E. coli kanamycin selection, DiMSum; sequences stand for … in CUCUCU…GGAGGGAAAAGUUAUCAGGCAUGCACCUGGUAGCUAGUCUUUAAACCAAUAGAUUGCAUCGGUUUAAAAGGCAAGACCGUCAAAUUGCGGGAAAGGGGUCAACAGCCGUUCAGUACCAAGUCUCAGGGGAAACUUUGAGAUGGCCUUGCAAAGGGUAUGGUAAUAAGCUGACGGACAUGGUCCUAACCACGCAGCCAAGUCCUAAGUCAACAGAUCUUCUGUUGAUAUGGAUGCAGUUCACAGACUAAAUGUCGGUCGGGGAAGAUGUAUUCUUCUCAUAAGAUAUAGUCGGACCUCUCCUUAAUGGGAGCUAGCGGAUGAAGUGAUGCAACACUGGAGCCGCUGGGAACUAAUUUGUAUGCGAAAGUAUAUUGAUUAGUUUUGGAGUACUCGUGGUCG; settings: 37 °C
Keep it simple and answer with nothing but the number.

* ACCCAGCAAUAUUACGUGGU | -2.76
* AGAAAGCAAUAUUACGUCGU | -0.452
* GAAUAGCAAUAUUACGAGUC | -1.4
* CACUAGCAAUAUUACGCACA | -0.695
* CCGCAGCAAUAUUACGUCUA | -3

## Input Report self-splicing fitness (ln) for UAAGAGCAAUAUUACGUCAU please.
## Output -2.22

## Input Cool, now AUUUAGCAAUAUUACGACUA
## Output -0.454

## Input And the next one, ACAUAGCAAUAUUACGUGUA ?
## Output -2.11

---

assay: self-splicing fitness, log relative to wild type (ln ratio); higher = more splicing; Tetrahymena group I intron in knt gene, E. coli kanamycin selection, DiMSum; sequences stand for … in CUCUCU…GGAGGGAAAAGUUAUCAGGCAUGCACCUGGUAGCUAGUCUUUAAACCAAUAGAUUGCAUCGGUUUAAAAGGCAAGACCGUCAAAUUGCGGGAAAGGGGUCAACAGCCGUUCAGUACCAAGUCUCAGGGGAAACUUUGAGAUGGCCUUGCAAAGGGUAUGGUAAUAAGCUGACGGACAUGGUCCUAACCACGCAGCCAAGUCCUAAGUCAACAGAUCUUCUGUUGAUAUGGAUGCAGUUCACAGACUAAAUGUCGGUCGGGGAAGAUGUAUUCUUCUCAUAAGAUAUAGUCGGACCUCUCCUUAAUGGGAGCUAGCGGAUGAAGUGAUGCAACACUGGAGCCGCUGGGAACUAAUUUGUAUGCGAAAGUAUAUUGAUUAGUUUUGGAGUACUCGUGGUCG; conditions: 37 °C
Tag: YES if measured self-splicing fitness (ln) is not below -1, NO if it is.

## Input Quick check: does UUGGAGCAAUAUUACGUUGA have self-splicing fitness (ln) greater than or equal to -1?
## Output YES

## Input Try this sequence next: AGUAAGCAAUAUUACGUUUC
## Output NO

## Input Would you kindly repeat that for AGUGAGCAAUAUUACGCUGU ?
## Output NO

## Input Then AGCCAGCAAUAUUACGUACA ?
## Output NO

## Input Note, next up: CUCGAGCAAUAUUACGUGUU
## Output NO

## Input Now the sequence AGGAAGCAAUAUUACGACAA
## Output NO

---

assay: self-splicing fitness, log relative to wild type (ln ratio); higher = more splicing; Tetrahymena group I intron in knt gene, E. coli kanamycin selection, DiMSum; sequences stand for … in CUCUCU…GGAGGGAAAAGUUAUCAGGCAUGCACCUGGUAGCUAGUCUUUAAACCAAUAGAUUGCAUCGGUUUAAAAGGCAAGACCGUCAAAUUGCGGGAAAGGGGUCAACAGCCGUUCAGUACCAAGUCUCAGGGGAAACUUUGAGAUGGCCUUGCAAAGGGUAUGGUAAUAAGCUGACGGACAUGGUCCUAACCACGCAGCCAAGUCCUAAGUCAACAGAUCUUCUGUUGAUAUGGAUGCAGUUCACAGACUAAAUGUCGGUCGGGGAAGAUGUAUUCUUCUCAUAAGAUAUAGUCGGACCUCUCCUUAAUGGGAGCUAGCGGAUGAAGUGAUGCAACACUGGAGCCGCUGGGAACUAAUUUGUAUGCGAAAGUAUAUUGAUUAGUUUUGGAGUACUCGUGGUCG; settings: 30 °C
// thresholds for self-splicing fitness (ln) classes: lower: < -3; middle: ≥ -3 and < -2; upper: ≥ -2

Examples from the recorded data:
• UAUCAGCAAUAUUACGUUCA = upper
• CGCAAGCAAUAUUACGCUAA = middle
• GUAAAGCAAUAUUACGGGAC = upper

## Input Hello team, could you let me know which band the following sequence falls into: CAUAAGCAAUAUUACGGCGC
## Output middle

## Input Then GGACAGCAAUAUUACGUGCC ?
## Output lower

## Input Try GUUUAGCAAUAUUACGUAAG next.
## Output upper

## Input Continue with AUGGAGCAAUAUUACGCGCA
## Output upper

## Input Okay, and AAGAAGCAAUAUUACGGGCC ?
## Output middle

## Input Another sequence to look at: CCUAAGCAAUAUUACGGAGC
## Output middle

## Input Would you mind doing AAAUAGCAAUAUUACGUUCG as well?
## Output upper

Reference source for all entries: the supplement of paper PMC7877785
